These data points were gathered from paper PMC10474154.

Tested on: human induced pluripotent stem cell-derived cardiomyocytes (hiPSC-CM)
method_summary: Action potential recordings in hiPSC-CM with voltage sensitive dye (FluoVolt, CellOPTIQ)
Type: cell-based
assay_context: hiPSC-CM, 100x clinical concentration
measured_endpoint: % Change of cycle length from baseline (%)

Worked cases, % Change of cycle length from baseline given:
compound="N#Cc1ccc2c(c1)CO[C@@]2(CCCN)c1ccc(F)cc1 [S-didemethylcitalopram]" data_value=0.09
compound="CNCCC[C@]1(c2ccc(F)cc2)OCc2cc(C#N)ccc21 [R-demethylcitalopram]" data_value=-8.55

1 = CNCCC[C@@]1(c2ccc(F)cc2)OCc2cc(C#N)ccc21 [S-demethylcitalopram]
2 = N#Cc1ccc2c(c1)CO[C@]2(CCCN)c1ccc(F)cc1 [R-didemethylcitalopram]
Between 1 and 2 , which one shows the smaller % Change of cycle length from baseline number? Give the chosen item's label as your response.
1
(1: -7.22%, 2: -1.67%)
